Item-by-item account of pKi
- assay target: human Y5 receptor (hNPY-5) (Homo sapiens, UniProt Q15761)
- Construct: expressed in transfected cells; host or cells: mouse fibroblast LM(tk-) cells, e.g. L-hY5-7 (ATCC CRL-11995)
- Sequence (Q15761 whole entry): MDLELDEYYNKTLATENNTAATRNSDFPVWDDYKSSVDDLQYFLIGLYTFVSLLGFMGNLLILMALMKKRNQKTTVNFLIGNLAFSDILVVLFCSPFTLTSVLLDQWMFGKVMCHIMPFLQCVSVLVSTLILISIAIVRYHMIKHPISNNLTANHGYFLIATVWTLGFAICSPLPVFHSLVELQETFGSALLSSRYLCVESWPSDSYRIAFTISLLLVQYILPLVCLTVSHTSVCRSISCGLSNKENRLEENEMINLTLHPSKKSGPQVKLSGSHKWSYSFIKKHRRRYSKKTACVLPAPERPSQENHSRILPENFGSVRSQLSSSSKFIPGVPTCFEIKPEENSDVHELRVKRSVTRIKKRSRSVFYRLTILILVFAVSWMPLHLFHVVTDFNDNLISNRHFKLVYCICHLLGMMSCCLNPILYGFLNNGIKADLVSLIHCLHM
- assay notes: Radioligand binding to membranes, cloned human Y5 receptor
- condition summary: binding Ki as repeated in Table 4; read-out: Ki (h NPY-5)
pKi: −log10 of the molar value.

compound smiles: COCC(=O)NC[C@H]1CC[C@H](Nc2nc3c(s2)CCCc2ccc(F)cc2-3)CC1
assay target: human Y5 receptor (hNPY-5) (Homo sapiens, UniProt Q15761)
pKi: 7.48
--
compound smiles: O=S(=O)(CC(F)(F)F)NCCCCCNc1nc2c(s1)CCCc1ccc(F)cc1-2
assay target: human Y5 receptor (hNPY-5) (Homo sapiens, UniProt Q15761)
pKi: 9.52
--
compound smiles: NS(=O)(=O)N[C@H]1CC[C@H](CNc2nc3c(s2)CCCc2ccc(F)cc2-3)CC1
assay target: human Y5 receptor (hNPY-5) (Homo sapiens, UniProt Q15761)
pKi: 8.64
--
compound smiles: CS(=O)(=O)N[C@H]1CC[C@H](CNc2nc3c(s2)CCOc2ccccc2-3)CC1
assay target: human Y5 receptor (hNPY-5) (Homo sapiens, UniProt Q15761)
pKi: 7.82
--
compound smiles: CN(C)S(=O)(=O)NC[C@H]1CC[C@H](Nc2nc3c(s2)CCCc2ccc(F)cc2-3)CC1
assay target: human Y5 receptor (hNPY-5) (Homo sapiens, UniProt Q15761)
pKi: 8.68
--
compound smiles: COc1ccc(C)cc1S(=O)(=O)NCCCCCNc1nc2c(s1)CCCc1ccc(F)cc1-2
assay target: human Y5 receptor (hNPY-5) (Homo sapiens, UniProt Q15761)
pKi: 8.49
--
compound smiles: CS(=O)(=O)N[C@H]1CC[C@H](Nc2nc3c(s2)CCCc2ccc(F)cc2-3)CC1
assay target: human Y5 receptor (hNPY-5) (Homo sapiens, UniProt Q15761)
pKi: 7.47
--
compound smiles: CS(=O)(=O)N[C@H]1CC[C@H](CNc2nc3c(s2)CCCc2ccc(F)cc2-3)CC1
assay target: human Y5 receptor (hNPY-5) (Homo sapiens, UniProt Q15761)
pKi: 8.36

* * *

Structures can show the parent of a compound that is named as a salt.

compound: NS(=O)(=O)NC[C@H]1CC[C@H](Nc2nc3c(s2)CCOc2ccccc2-3)CC1
melting point: 170 to 173 °C
//
compound: COCC(=O)N[C@H]1CC[C@H](CNc2nc3c(s2)CCOc2ccccc2-3)CC1 (as salt: HCl)
melting point: 234 to 237 °C
//
compound: COc1ccc(C)cc1S(=O)(=O)NCCOCCNc1nc2c(s1)CCCc1ccc(F)cc1-2 (as salt: HCl)
melting point: 56 to 60 °C
//
compound: Cn1cnc(S(=O)(=O)NCCCCCNc2nc3c(s2)CCCc2ccc(F)cc2-3)c1
melting point: 50 to 53 °C
//
compound: O=S(=O)(CC(F)(F)F)N[C@H]1CC[C@H](Nc2nc3c(s2)CCCc2ccc(F)cc2-3)CC1
melting point: 89 to 91 °C
//
compound: COc1cccc2c1OCCc1sc(NC[C@H]3CC[C@H](NS(=O)(=O)N(C)C)CC3)nc1-2 (as salt: HCl)
melting point: 206 to 208 °C
//
compound: COC[C@@H]1CCCN1S(=O)(=O)c1ccc(Nc2nc3c(s2)CCCc2ccc(F)cc2-3)cc1
melting point: 186 to 188 °C

* * *

- assay target: human Y5 receptor (hNPY-5) (Homo sapiens, UniProt Q15761)
- Construct: expressed in transfected cells; host or cells: mouse fibroblast LM(tk-) cells, e.g. L-hY5-7 (ATCC CRL-11995)
- assay notes: Radioligand binding to membranes, cloned human Y5 receptor
- condition summary: cloned human NPY Y5 receptor, radioligand competition binding; Tables 1-3; read-out: Ki, nM hNPY-5
- Procedure: Binding of the compounds of the present invention to human Y1, Y2, Y4, and Y5 receptors was evaluated using stably transfected 293 or LM(tk-) cells as described above. […] Membranes were harvested from COS-7 cells 48 hours after transient transfection. […] Protein concentration was measured by the Bradford method (Bradford, 1976) using Bio-Rad Reagent, with bovine serum albumin as a standard. […]

compound smiles: CCN(CC)S(=O)(=O)NCCCCCNc1nc2c(s1)CCCc1ccc(F)cc1-2
Ki: 2.1 nM
//
compound smiles: O=S(=O)(NCCCCNc1nc2c(s1)CCCc1ccc(F)cc1-2)c1cccc2ccccc12
Ki: 94 nM
//
compound smiles: NS(=O)(=O)NC[C@H]1CC[C@H](Nc2nc3c(s2)CCOc2ccccc2-3)CC1
Ki: 34 nM
//
compound smiles: CS(=O)(=O)NC[C@H]1CC[C@H](Nc2nc3c(s2)CCCc2ccc(F)cc2-3)CC1
Ki: 6.4 nM
//
compound smiles: O=S(=O)(NC[C@H]1CC[C@H](Nc2nc3c(s2)CCCc2ccc(F)cc2-3)CC1)c1ccc(F)c(F)c1
Ki: 19.5 nM
//
compound smiles: O=S(=O)(NC[C@H]1CC[C@H](Nc2nc3c(s2)CCCc2ccc(F)cc2-3)CC1)N1CCOCC1
Ki: 4.1 nM
//
compound smiles: COc1ccc(C)cc1S(=O)(=O)N[C@H]1CC[C@H](CNc2nc3c(s2)CCOc2ccccc2-3)CC1
Ki: 8.3 nM
//
compound smiles: O=S(=O)(NC[C@H]1CC[C@H](Nc2nc3c(s2)CCCc2ccc(F)cc2-3)CC1)c1cccs1
Ki: 4.2 nM

* * *

Each entry below carries its recorded Ki.
- assay target: human Y5 receptor (hNPY-5) (Homo sapiens, UniProt Q15761)
- Construct: expressed in transfected cells; host or cells: mouse fibroblast LM(tk-) cells, e.g. L-hY5-7 (ATCC CRL-11995)
- assay notes: Radioligand binding to membranes, cloned human Y5 receptor
- condition summary: cloned human NPY Y5 receptor, radioligand competition binding; Tables 1-3; read-out: Ki, nM hNPY-5

compound smiles: CS(=O)(=O)NC[C@H]1CC[C@H](Nc2nc3c(s2)CCOc2ccccc2-3)CC1
Ki / nM: 22
--
compound smiles: COCC(=O)NCc1ccc(Nc2nc3c(s2)CCCc2ccc(F)cc2-3)cc1
Ki / nM: 9.2
--
compound smiles: COc1cccc2c1OCCc1sc(NC[C@H]3CC[C@H](NS(=O)(=O)N(C)C)CC3)nc1-2
Ki / nM: 2
--
compound smiles: CCN(CC)S(=O)(=O)N[C@H]1CC[C@H](Nc2nc3c(s2)CCCc2ccc(F)cc2-3)CC1
Ki / nM: 6.5
--
compound smiles: COc1ccc2c(c1)CCCc1sc(N[C@H]3CC[C@H](CNS(C)(=O)=O)CC3)nc1-2
Ki / nM: 22
--
compound smiles: O=S(=O)(NCCCCNc1nc2c(s1)CCCc1ccc(F)cc1-2)c1ccccc1F
Ki / nM: 23
--
compound smiles: CS(=O)(=O)NCCCCNc1nc2c(s1)CCCc1ccc(F)cc1-2
Ki / nM: 19.8
--
compound smiles: O=S(=O)(NCCCCNc1nc2c(s1)CCCc1ccc(F)cc1-2)c1cccnc1
Ki / nM: 26

* * *

- assay target: human Y5 receptor (h NPY-5) (Homo sapiens, UniProt Q15761)
- Construct: expressed in transfected cells; host or cells: mouse fibroblast LM(tk-) cells, e.g. L-hY5-7 (ATCC CRL-11995)
- Sequence (Q15761 whole entry): as above
- assay notes: Functional assay: radioimmunoassay of cAMP
- Type: cell-based
- condition summary: functional antagonism, forskolin-stimulated cAMP, cells stably transfected with human Y5
Below, each entry is listed with its recorded Kb.

compound smiles: O=S(=O)(CC(F)(F)F)NCCCCCNc1nc2c(s1)CCCc1ccc(F)cc1-2
Kb: 5.01 nM
//
compound smiles: CS(=O)(=O)NC[C@H]1CC[C@H](Nc2nc3c(s2)CCCc2ccc(F)cc2-3)CC1
Kb: 3.16 nM
//
compound smiles: CS(=O)(=O)N[C@H]1CC[C@H](CNc2nc3c(s2)CCOc2ccccc2-3)CC1
Kb: 7.94 nM
//
compound smiles: O=S(=O)(NCCCCCNc1nc2c(s1)CCCc1ccc(F)cc1-2)c1cccc2ccccc12
Kb: 2.51 nM

* * *

Structures can show the parent of a compound that is named as a salt.

compound: CC(C)S(=O)(=O)NCCOCCNc1nc2c(s1)CCCc1ccc(F)cc1-2 (as salt: HCl) [Example 69]
melting point: 50 to 55 °C
--
compound: O=S(=O)(NC[C@H]1CC[C@H](Nc2nc3c(s2)CCCc2ccc(F)cc2-3)CC1)c1cccnc1 (as salt: salt) [Example 59]
melting point: 127 to 129 °C
--
compound: CS(=O)(=O)N[C@H]1CC[C@H](CNc2nc3c(s2)CCOc2ccccc2-3)CC1 [Example 50]
melting point: 64 to 67 °C
--
compound: CCS(=O)(=O)N[C@H]1CC[C@H](CNc2nc3c(s2)CCOc2ccc(OC)cc2-3)CC1 [Example 64]
melting point: 165 to 170 °C
--
compound: CS(=O)(=O)NCCOCCNc1nc2c(s1)CCCc1ccc(F)cc1-2 [Example 57]
melting point: 159 to 162 °C
--
compound: O=S(=O)(N[C@H]1CC[C@H](Nc2nc3c(s2)CCCc2ccc(F)cc2-3)CC1)c1cccs1 [Example 37]
melting point: 230 to 231 °C
--
compound: O=C1OCCN1C[C@H]1CC[C@H](Nc2nc3c(s2)CCCc2ccc(F)cc2-3)CC1 (as salt: HCl) [Example 79]
melting point: 223 to 225 °C
--
compound: NS(=O)(=O)N[C@H]1CC[C@H](CNc2nc3c(s2)CCCc2ccc(F)cc2-3)CC1 [Example 44]
melting point: 180 to 182 °C
